# System: WSU-NHL (B-Cell Non-Hodgkin's Lymphoma);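 also: after 72 h of two-drug dosing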
# assay method text: Bliss excess, mean over the matrix (fraction); higher = more synergy

>  <molecule>
CC(=O)c1c(C)c2cnc(Nc3ccc(N4CCNCC4)cn3)nc2n(C2CCCC2)c1=O [Palbociclib] + Cc1c2c(nn1C)CSCc1cc(n(C)n1)CSc1cc(c3ccccc3c1)OCCCc1c(C(=O)O)n(C)c3c-2c(Cl)ccc13 [AZD5991] (first compound max 10 µM, 7x7, partner max 1 µM)

>  <Bliss excess>
-0.0269

$$$$
>  <molecule>
CN(CCO)CC[C@H](CSc1ccccc1)Nc1ccc(S(=O)(=O)NC(=O)c2ccc(N3CCC([C@@H](O)c4ccccc4-c4ccc(Cl)cc4)CC3)cc2)cc1S(=O)(=O)C(F)(F)F [AZD4320] + CN(C)CCCOc1ccc(-c2ccc3ncc4c(c3c2)n(C2CCOCC2)c(=O)n4C)cn1 [AZD0156] (first compound max 1 µM, 7x7, partner max 1 µM)

>  <Bliss excess>
-0.0238

$$$$
>  <molecule>
CN(C)CCCOc1ccc(-c2ccc3ncc4c(c3c2)n(C2CCOCC2)c(=O)n4C)cn1 [AZD0156] + CCN(CCO)CCCOc1ccc2c(Nc3cc(CC(=O)Nc4cccc(F)c4)[nH]n3)ncnc2c1 [AZD2811] (first compound max 1 µM, 7x7, partner max 1 µM)

>  <Bliss excess>
-0.005

$$$$

These measurements were taken from the supplement of paper PMC11061612.
